Data provenance is paper PMC4229392.

Experiment: Plasma pharmacokinetics of alisertib ECT
Type: in vivo, human
Conditions: human, plasma, oral, 60 mg, Median Tmax (range), steady-state (day 7), ECT, 60 mg BID (n = 2)
PROPERTY: Tmax
Write your answer as a measured quantity: the number, then the unit.

**Q:** Data request, read-out Tmax, for COc1cc(Nc2ncc3c(n2)-c2ccc(Cl)cc2C(c2c(F)cccc2OC)=NC3)ccc1C(=O)O [alisertib]
**A:** 2.8 h
